# target-of-assay: CYP2D6 (Homo sapiens, UniProt P10635)
# Sequence (P10635 whole entry): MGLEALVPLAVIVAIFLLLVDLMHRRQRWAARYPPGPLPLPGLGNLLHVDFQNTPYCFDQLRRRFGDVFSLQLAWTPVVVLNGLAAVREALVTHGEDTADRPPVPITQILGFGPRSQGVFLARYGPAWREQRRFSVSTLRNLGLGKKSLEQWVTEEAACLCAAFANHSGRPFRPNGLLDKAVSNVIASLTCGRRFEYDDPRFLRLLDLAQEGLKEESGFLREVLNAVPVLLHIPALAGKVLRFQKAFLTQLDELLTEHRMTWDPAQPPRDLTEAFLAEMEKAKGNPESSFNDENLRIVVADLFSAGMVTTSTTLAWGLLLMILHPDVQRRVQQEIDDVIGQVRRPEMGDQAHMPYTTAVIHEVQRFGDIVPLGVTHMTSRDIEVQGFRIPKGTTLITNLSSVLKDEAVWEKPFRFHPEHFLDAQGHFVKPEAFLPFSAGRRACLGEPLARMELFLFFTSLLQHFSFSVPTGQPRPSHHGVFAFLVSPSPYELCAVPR
# protocol-details: Inhibition of CYP2D6 (unknown origin) assessed as enzyme activity at 10 uM relative to control
# Assay type: ADME
# Parameters: scale not given: the % may be the effect or the level left
# run-parameters: read-out: Activity
assay-metric: activity at 10 µM (%)
One number for each entry, in %.

compound: COc1ccc(S(=O)(=O)/C=C/c2ccccc2Cl)nc1
target-of-assay: CYP2D6 (Homo sapiens, UniProt P10635)
activity at 10 µM / %: 100

Would you mind giving activity at 10 µM for every compound in the list below?
1. COc1ncccc1S(=O)(=O)/C=C/c1ccccc1C(F)(F)F
2. COc1ccnc(S(=O)(=O)/C=C/c2cccc(Cl)c2)c1
3. COc1cccnc1S(=O)(=O)/C=C/c1ccccc1F

Marked response:
1: 94.4; 2: 97.2; 3: 98.8

Working through the 3 compounds below one at a time, give activity at 10 µM for each.
1. COc1ccnc(S(=O)(=O)/C=C/c2ccccc2C(F)(F)F)c1
2. COc1cccc(S(=O)(=O)/C=C/c2ncccc2Cl)n1
3. COc1cccnc1S(=O)(=O)/C=C/c1ccccc1C(F)(F)F

Marked response:
1. 96.3
2. 96
3. 99.1

====

For each record, write down the corresponding activity at 10 µM.
# target-of-assay: CYP2C9 (Homo sapiens)
# Sequence (P11712 whole entry): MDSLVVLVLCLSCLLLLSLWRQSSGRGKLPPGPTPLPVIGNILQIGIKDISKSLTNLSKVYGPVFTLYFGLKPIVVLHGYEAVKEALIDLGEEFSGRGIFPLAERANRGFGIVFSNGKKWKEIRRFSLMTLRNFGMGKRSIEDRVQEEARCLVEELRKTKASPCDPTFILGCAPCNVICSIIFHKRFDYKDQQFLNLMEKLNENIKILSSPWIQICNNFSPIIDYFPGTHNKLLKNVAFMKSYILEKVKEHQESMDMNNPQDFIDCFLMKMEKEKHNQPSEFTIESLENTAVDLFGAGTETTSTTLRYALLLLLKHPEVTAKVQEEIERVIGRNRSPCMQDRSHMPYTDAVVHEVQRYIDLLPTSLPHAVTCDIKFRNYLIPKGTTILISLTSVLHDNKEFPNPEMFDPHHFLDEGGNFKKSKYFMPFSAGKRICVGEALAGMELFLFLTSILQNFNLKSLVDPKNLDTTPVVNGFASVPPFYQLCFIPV
# protocol-details: Inhibition of CYP2C9 (unknown origin) assessed as enzyme activity at 10 uM relative to control
# Type: ADME
# Design: scale not given: the % may be the effect or the level left
# run-parameters: read-out: Activity
Answers are plain numbers, in %.

Return reported activity at 10 µM values for all items listed beneath this line.
1. COc1cccnc1S(=O)(=O)/C=C/c1ccccc1F
2. COc1ccnc(S(=O)(=O)/C=C/c2ccccc2Cl)c1
3. COc1cccc([S+]([O-])/C=C/c2ccccc2C(F)(F)F)n1 (stereo not given)
4. COc1cccc(S(=O)(=O)/C=C/c2ccccc2C(F)(F)F)n1
5. COc1cccnc1S(=O)(=O)/C=C/c1ncccc1C(F)(F)F

Marked response:
1. 79.7
2. 73.6
3. 78.3
4. 71
5. 69.7

====

# target-of-assay: CYP1A2 (Homo sapiens, UniProt P05177)
# Sequence (P05177 whole entry): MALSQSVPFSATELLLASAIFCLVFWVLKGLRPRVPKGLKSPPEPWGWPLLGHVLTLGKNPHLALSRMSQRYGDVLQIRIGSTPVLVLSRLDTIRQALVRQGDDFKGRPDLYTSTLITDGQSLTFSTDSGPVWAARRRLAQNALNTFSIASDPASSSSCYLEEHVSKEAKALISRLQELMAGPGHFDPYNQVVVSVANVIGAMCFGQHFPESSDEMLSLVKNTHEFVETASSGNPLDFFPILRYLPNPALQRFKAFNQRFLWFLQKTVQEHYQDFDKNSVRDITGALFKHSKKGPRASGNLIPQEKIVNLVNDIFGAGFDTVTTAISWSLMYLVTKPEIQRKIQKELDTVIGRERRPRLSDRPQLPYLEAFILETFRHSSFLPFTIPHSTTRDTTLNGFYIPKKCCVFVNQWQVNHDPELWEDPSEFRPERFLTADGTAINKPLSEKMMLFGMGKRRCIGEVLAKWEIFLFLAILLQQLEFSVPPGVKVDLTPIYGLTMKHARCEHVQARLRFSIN
# protocol-details: Inhibition of CYP1A2 (unknown origin) assessed as enzyme activity at 10 uM relative to control
# Format: ADME
# Parameters: scale not given: the % may be the effect or the level left
# run-parameters: read-out: Activity
assay-metric: activity at 10 µM (%)
Answers are plain numbers, in %.

I'm hoping you can list activity at 10 µM for every compound here, please.
1. COc1ccc(S(=O)(=O)/C=C/c2ccccc2C(F)(F)F)nc1
2. COc1cccnc1/C=C/S(=O)(=O)c1ncccc1OC
3. COc1ccnc(S(=O)(=O)/C=C/c2cccnc2Cl)c1

Marked response:
[27.8, 82.1, 81]

====

Exercise: state measured remaining at 0.5 h for each of the molecules provided.
# protocol-details: Metabolic stability of the compound in rat plasma assessed as parent compound remaining measured after 30 mins
# Type: ADME, cell-free
# run-parameters: read-out: Stability
Answers are plain numbers, in %.

Sample answers from the record:
molecule: COc1cccnc1S(=O)(=O)/C=C/c1ncccc1C(F)(F)F
result-number: 84.1

molecule: COc1ccc(S(=O)(=O)/C=C/c2ccccc2C(F)(F)F)nc1
result-number: 94.7

molecule: COc1ccnc(S(=O)(=O)/C=C/c2ccnc(Cl)c2)c1
result-number: 59

molecule: COc1ccnc(S(=O)(=O)/C=C/c2ccccc2C(F)(F)F)c1
result-number: 95.3

molecule: COc1cccnc1C(=O)/C=C/c1ccccc1C(F)(F)F
result-number: 94.3

Report remaining at 0.5 h for each item below.
1. COc1ncccc1S(=O)(=O)/C=C/c1ccccc1Cl
2. COc1ncccc1S(=O)(=O)/C=C/c1ncccc1C(F)(F)F
3. COc1ccnc([S+]([O-])/C=C/c2ccccc2C(F)(F)F)c1 (centres undefined)
4. COc1cccc(S(=O)(=O)/C=C/c2ccccc2C(F)(F)F)n1
5. COc1ncccc1S(=O)(=O)/C=C/c1ncccc1Cl

Marked response:
1. 98.9
2. 88.6
3. 92.2
4. 91.8
5. 91.3
